Test system: Hs-578T
Assay: NCI tumour cell line growth inhibition, 48 h
Active and inactive are the calls of the source. Cut-off read from the data, not from the text of the source: active = GI50 up to about 1.1 µM and inactive = higher.
I'd appreciate it if you could supply GI50 values for the items below.

Sample records with GI50:
COc1ccc2cc(C(=O)CCC(=O)O)ccc2c1 | > 100 µM (inactive)
Fc1cc(-c2cc(-c3ccc4c(c3)OCO4)n[nH]2)c(Cl)cc1Cl | 3.99 µM (inactive)
NC(=O)N/N=C(\Cc1cc(=O)oc2cc(O)ccc12)C(=O)Nc1ccccc1C(N)=O | > 100 µM (inactive)
Clc1ccc(/C=N/c2ccc(Oc3ccc(Cl)cc3)c(Cl)c2)cc1 | 21.5 µM (inactive)
CC(C)(C)OC(=O)CCC1NC(=O)[C@@H]2Cc3c([nH]c4ccccc34)C(C3CCCCC3)N2C1=O (stereo not given in full) | 20.8 µM (inactive)

I would be grateful if you could provide GI50 for each of the following entries.
1. O=C1OCC(CN2CCC(n3c(=O)[nH]c4ccccc43)CC2)=C1c1ccccc1
2. O=S(=O)(O)c1cc(S(=O)(=O)O)c2c(Nc3ccnc4ccccc34)ccc(S(=O)(=O)O)c2c1
3. Cc1[nH]c(C)c(CN(C)C)c1CN(C)C
4. COC(=O)C(NC(=O)c1ccccc1)c1ccco1 (stereo not given)
5. CCCCCCCCCCCC(=O)OC[C@@H](C[As](=O)(O)O)OC(=O)CCCCCCCCCCC

A.
["30 µM (inactive)", "> 100 µM (inactive)", "> 100 µM (inactive)", "> 100 µM (inactive)", "3.93 µM (inactive)"]

---

Test system: MCF7
Experiment: NCI tumour cell line growth inhibition, 48 h
Active and inactive are the calls of the source. No stated cut-off is given here; in the data, active = GI50 up to about 1.1 µM and inactive = higher.
Write down the outcome that applies. Available outcomes: active, inactive

Example cases with answers are listed next.
O=C(OCc1ccccc1)N1CCN(C(=O)OCc2ccccc2)CCN(C(=O)OCc2ccccc2)CCN(C(=O)OCc2ccccc2)CCN(C(=O)OCc2ccccc2)CC1 | inactive
CCCCN(Cc1ccccc1)/C(=N/C#N)N(Cc1ccccc1)Cc1ccccc1 | inactive

Q. Dear colleague, could you share the recorded outcome for "Cc1cc(N(CCC#N)CCC#N)ccc1C(=N/NC(=O)c1cc(Cl)ccc1O)/N=N/c1cccc([N+](=O)[O-])c1" when you have a moment?
A. inactive

Q. Called result for "BrC1=CN2C[n+]3cc(Br)c4ccccc4c3N=C2c2ccccc21"
A. inactive

Q. Called result for CCC1c2[nH]c3ccccc3c2C[C@H]2C(=O)NC(COC(C)(C)C)C(=O)N12 (some centres undefined)
A. inactive

---

Test system: SW-620
Assay: NCI tumour cell line growth inhibition, 48 h
Activity calls are given as the source filed them. Cut-off read from the data, not from the text of the source: active = GI50 up to about 1.1 µM and inactive = higher.
Permitted responses: active, inactive

Would you please look over these solved cases?
C=C1C(=O)OC2/C=C(/C)C3CC(O)C(C)(CC(OC(=O)/C(C)=C/C)C12)O3 (stereo not drawn) | inactive
O=C(CC(=O)c1cccc2ccccc12)C(=O)NC1C2CC3CC(C2)CC1C3 (stereo not drawn) | inactive
COc1ccc2c(c1)CCc1c(-c3n[nH]c4c3CCc3cc(OC)ccc3-4)n[nH]c1-2 | inactive
N#CCCCCCOCCOCCOCCOCCOCCCCCC#N | inactive
CC(=O)CNC(=O)OC(C)(C)C | inactive
CSc1ccc(/C=C2\N=C(c3ccccc3)N(c3nc4cc(C)c(C)cc4s3)C2=O)cc1 | inactive
COc1ccc(CNNC(=O)c2cc[n+]([BH2-]C#N)cc2)cc1OC | inactive
CCOC(=O)c1ccc(Nc2cnc3cc(C(F)(F)F)ccc3n2)cc1 | inactive
CCCCOc1ccc(NC(=N)Nc2ccc(Cl)cc2)cc1 | active
CC(=O)/C=C/c1cccc(N=S)c1 | inactive

Q. For "Clc1cccc(Cl)c1/C=N/C12CC3CC(CC(C3)C1)C2" , what call appears in the results of this test?
A. inactive

Q. Hello, I am checking results. What call was entered for "COc1ccc(-n2c(=O)[nH]n(C(C)=O)c2=O)cc1" ?
A. inactive

Q. Assay result, entry "CN(CCNC(=O)c1nn(-c2ccccc2)c2c1ccc1ccccc12)CCNC(=O)c1nn(-c2ccccc2)c2c1ccc1ccccc12" — outcome?
A. inactive

Q. // param item: "Nn1c(SCC(=O)O)nc2ccccc2c1=O" ; yields the recorded call
A. inactive

Q. Recorded test call requested for "O=C1CN(c2cccc(C(F)(F)F)c2)C(=O)CN1CCN1CC(=O)N(c2cccc(C(F)(F)F)c2)CC1=O"
A. inactive

Q. Answer briefly: the call reported for Cc1ccccc1NC(=O)C(=O)C(C1OC(=O)c2ccccc21)[N+](=O)[O-] (stereo not drawn) in this assay.
A. inactive

Q. Hey, what did the test say about C=CCOC(=O)C1C2OC3(C(C(=O)OC)=C2C(=O)OC)c2ccccc2CCC13 (stereo not drawn) ?
A. inactive
